- Species on record: Rattus norvegicus
- test: Inhibition of rat recombinant geranylgeranyltransferase type I expressed in Escherichia coli assessed as residual enzyme activity for geranylgeranylation of K-Ras4B at 50 uM incubated for 30 mins in presence of [3H]GGPP by scintillation counting assay relative to control
measured-parameter: Activity (%)

>>> df
                                 cpd_smiles  measured_parameter  units  reported_value
0  C=CCS[C@@H]1C[C@@H](c2ccc(OC)c(OC)c2)N(S(=O)(=O)c2ccc(C)cc2)C[C@H]1C(=O)O            Activity      %             109

P = COc1ccc([C@@H]2C[C@@H](SCc3ccccc3)[C@H](C(=O)O)CN2S(=O)(=O)c2ccccc2C)cc1
Q = Cc1ccc(S(=O)(=O)N2[C@@H](c3cccc(F)c3)C(C(=O)O)=CC[C@H]2c2ccccc2)cc1
Quick check, higher Activity between P and Q ? Label of pick, please.
Q
(Q: 63.7%, P: 33.9%)

---

- Species: Rattus norvegicus
- test: Inhibition of rat recombinant geranylgeranyltransferase type I expressed in Escherichia coli assessed as residual enzyme activity for geranylgeranylation of K-Ras4B at 50 uM incubated for 30 mins in presence of [3H]GGPP by scintillation counting assay relative to control
measured-parameter: Activity (%)

>>> print(df.to_string())
                                 cpd_smiles  measured_parameter  reported_value
0  COc1ccc([C@@H]2CC=C(C(=O)O)[C@H](c3ccc(Br)cc3)N2S(=O)(=O)c2ccc(C)cc2)cc1            Activity            72.1
1  COc1ccc([C@@H]2CC=C(C(=O)O)[C@H](c3ccc(F)cc3)N2S(=O)(=O)c2ccc(C)cc2)cc1OC            Activity            69.8

---

- Species on record: Rattus norvegicus
- test: Inhibition of rat recombinant geranylgeranyltransferase type I expressed in Escherichia coli assessed as residual enzyme activity for geranylgeranylation of K-Ras4B at 50 uM incubated for 30 mins in presence of [3H]GGPP by scintillation counting assay relative to control
measured-parameter: Activity (%)

                                 cpd_smiles  units  reported_value
0  CCCCCS[C@@H]1C[C@@H](c2ccc(OCC)cc2)N(S(=O)(=O)c2ccc(C)cc2)C[C@H]1C(=O)O      %            89.1
1  Cc1ccc(S(=O)(=O)N2[C@@H](c3cccc(Cl)c3)C(C(=O)O)=CC[C@H]2c2ccc(C#N)cc2)cc1      %            70.9
2  Cc1ccc([C@H]2C(C(=O)O)=CC[C@@H](c3ccc(C(C)C)cc3)N2S(=O)(=O)c2ccc(C)cc2)cc1      %            63.7
3  O=C(O)C1=CC[C@@H](c2ccc(Cl)cc2)N(S(=O)(=O)c2ccc(Cl)cc2)[C@H]1c1ccc(Cl)cc1      %            57.7
4  Cc1ccc([C@H]2C(C(=O)O)=CC[C@@H](c3cccc(F)c3)N2S(=O)(=O)c2ccc(C)cc2)cc1      %            81.3
5  COc1ccc([C@@H]2C[C@@H](SCc3ccc(C(C)(C)C)cc3)[C@H](C(=O)O)CN2S(=O)(=O)c2ccc(C)cc2)cc1OC      %            78.9

a = Cc1ccc(S(=O)(=O)N2[C@@H](c3cccc(F)c3)C(C(=O)O)=CC[C@H]2c2ccc3c(c2)OCO3)cc1
b = COc1ccc([C@@H]2CC=C(C(=O)O)[C@H](c3cccc(Br)c3)N2S(=O)(=O)c2ccc(C)cc2)cc1OC
# returns the entry with the larger Activity; inputs a and b Answer = label.
a

---

- Organism: Rattus norvegicus
- test: Inhibition of rat recombinant geranylgeranyltransferase type I expressed in Escherichia coli assessed as residual enzyme activity for geranylgeranylation of K-Ras4B at 50 uM incubated for 30 mins in presence of [3H]GGPP by scintillation counting assay relative to control
measured-parameter: Activity (%)

>>> print(df.to_string())
                                 cpd_smiles  reported_value
0  COc1ccc(S[C@@H]2C[C@@H](c3ccc(OC)cc3)N(S(=O)(=O)c3ccccc3)C[C@H]2C(=O)O)cc1            90.5

I = CCc1ccc([C@@H]2C[C@@H](SCc3ccc(Cl)cc3)[C@H](C(=O)O)CN2S(=O)(=O)c2ccc(C)cc2)cc1
II = CC(=O)C1=CC[C@@H](c2cccc3ccccc23)N(S(=O)(=O)c2ccc(C)cc2)C1
I'm curious, which of these has a smaller Activity number: I or II ? Give the chosen item's label as your response.
I

1 = COc1ccc([C@@H]2C[C@@H](SCc3ccccc3)[C@H](C(=O)O)CN2S(=O)(=O)c2ccccc2)cc1
2 = COc1ccc(S[C@@H]2C[C@@H](c3ccc(C)cc3)N(S(=O)(=O)c3ccccc3C)C[C@H]2C(=O)O)cc1
Between these two entries, 1 and 2 , state which has the higher Activity. # answer = label of selected item
2
(2: 99%, 1: 57.3%)

1 = Cc1ccc(S(=O)(=O)N2[C@@H](c3cccc(Cl)c3)C(C(=O)O)=CC[C@H]2c2ccc3c(c2)OCO3)cc1
2 = C=CCS[C@H]1[C@@H](C(=O)O)[C@H](c2ccc(Br)cc2)N(S(=O)(=O)c2ccc(C)cc2)[C@@H]1CCC
Which value of Activity is numerically greater: that of 1 or that of 2 ? Field: selected label. Fill in the label of the entry you choose.
1

---

- Species on record: Rattus norvegicus
- test: Inhibition of rat recombinant geranylgeranyltransferase type I expressed in Escherichia coli assessed as residual enzyme activity for geranylgeranylation of K-Ras4B at 50 uM incubated for 30 mins in presence of [3H]GGPP by scintillation counting assay relative to control
measured-parameter: Activity (%)

Sample answers from the record:
In [3]: df
Out[3]:
                                 cpd_smiles  reported_value
0  COc1ccc([C@@H]2CC=C(C(=O)O)[C@H](c3cccc(F)c3)N2S(=O)(=O)c2ccccc2)cc1            91.8
1  COc1cccc([C@@H]2C[C@@H](SCc3ccc(Cl)cc3)[C@H](C(=O)O)CN2S(=O)(=O)c2ccc(C)cc2)c1            34.4
2  Cc1ccc([C@@H]2C[C@@H](SCC(C)C)[C@H](C(=O)O)CN2S(=O)(=O)c2ccc(Cl)cc2)cc1            66.3
3  CCCCS[C@@H]1C[C@@H](c2ccc(CC)cc2)N(S(=O)(=O)c2ccc(C)cc2)C[C@H]1C(=O)O            58.3
4  Cc1ccc(S(=O)(=O)N2[C@@H](c3cccc(C)c3)C(C(=O)O)=CC[C@H]2c2ccc(C(C)C)cc2)cc1            57.1
5  Cc1ccc(S(=O)(=O)N2C[C@@H](C(=O)O)[C@H](SCc3ccc(Cl)cc3)C[C@H]2c2ccccc2F)cc1            61.4
6  COc1ccc([C@@H]2C[C@@H](SCCc3ccccc3)[C@H](C(=O)O)CN2S(=O)(=O)c2ccc(Cl)cc2)cc1            75.3
7  CCOc1ccc([C@@H]2C[C@@H](SCc3ccccc3)[C@H](C(=O)O)CN2S(=O)(=O)c2ccc(C)cc2)cc1            50.9

1 = Cc1ccc([C@@H]2CC=C(C(=O)O)[C@H](c3ccc(F)cc3)N2S(=O)(=O)c2ccc(Cl)cc2)cc1
2 = CCCS[C@@H]1C[C@@H](c2ccc(C)cc2)N(S(=O)(=O)c2ccccc2C)C[C@H]1C(=O)O
Just curious, which one has the larger Activity reading, 1 or 2 ? Kindly state the label of the option you pick.
2

---

- Species: Rattus norvegicus
- test: Inhibition of rat recombinant geranylgeranyltransferase type I expressed in Escherichia coli assessed as residual enzyme activity for geranylgeranylation of K-Ras4B at 50 uM incubated for 30 mins in presence of [3H]GGPP by scintillation counting assay relative to control
measured-parameter: Activity (%)

In [3]: df
Out[3]:
                                 cpd_smiles  units  reported_value
0  Cc1ccc(S[C@@H]2C[C@@H](c3ccccc3)N(S(=O)(=O)c3ccc(C)cc3)C[C@H]2C(=O)O)cc1      %              98
1  Cc1ccc([C@H]2C(C(=O)O)=CC[C@@H](c3ccccc3F)N2S(=O)(=O)c2ccc(C)cc2)cc1      %            92.9
2  COc1ccc([C@@H]2CC=C(C(=O)O)[C@H](c3cccc(F)c3)N2S(=O)(=O)c2ccccc2C)cc1      %            86.6
3  CCc1ccc([C@@H]2C[C@@H](SC3CCCC3)[C@H](C(=O)O)CN2S(=O)(=O)c2ccc(C)cc2)cc1      %              87
4  COc1ccc(S[C@@H]2C[C@@H](c3ccc(OC)cc3)N(S(=O)(=O)c3ccc(Cl)cc3)C[C@H]2C(=O)O)cc1      %            80.8
5  CCCCS[C@@H]1C[C@@H](c2ccc(Cl)cc2)N(S(=O)(=O)c2ccc(C)cc2)C[C@H]1C(=O)O      %            81.5
6  CCc1ccc([C@@H]2C[C@@H](Sc3ccc(OC)cc3)[C@H](C(=O)O)CN2S(=O)(=O)c2ccc(C)cc2)cc1      %            90.8
7  Cc1ccc([C@@H]2CC=C(C(=O)O)[C@H](c3cccc(C)c3)N2S(=O)(=O)c2ccc(Cl)cc2)cc1      %            89.9
8  Cc1ccc([C@H]2C(C(=O)O)=CC[C@@H](c3ccc(C)cc3)N2S(C)(=O)=O)cc1      %              78
